B1: library; a variant is named by its letters at N, in order (parent)
chain: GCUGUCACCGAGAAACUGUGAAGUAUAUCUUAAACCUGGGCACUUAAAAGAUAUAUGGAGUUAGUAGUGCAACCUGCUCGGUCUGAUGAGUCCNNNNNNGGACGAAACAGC

# Variants of: B1
# experimentalDetails: FACS-Seq fitted mean relative fluorescence mCherry/BFP without ligand (log10 relative fluorescence); HEK293T; ligand: cyclic di-GMP (c-di-GMP-II aptamer); higher = higher reporter protein expression
# appliedConditions: ligand present: no
metricName: FACS-Seq fitted mean (log10)
# print the numeric value only

// query FACS-Seq fitted mean (log10) value for entry CGUUCU
-0.248

What about CUGAUG ?
-0.749

What about CCUCCG ?
0.138

What about AUGAUU ?
-0.57

What about GAAGAA ?
-0.423

What about ACGCAG ?
-0.51

What about UAUACU ?
0.0993

What about UAUAGC ?
-0.313

What about GCAGAA ?
-0.671

What about CUCUAU ?
-0.312

What about CCCGUC ?
-0.648

What about UGAUGU ?
-0.179

What about UGUGAC ?
0.123

What about UCGCCA ?
0.132

What about ACAAUU ?
-0.501

What about AGUAAC ?
-0.0857

What about ACCAAG ?
-0.434

What about CUAAUA ?
-0.533

What about CUUUAA ?
-0.402

What about UUCAAC ?
-0.163

What about CACGUG ?
-0.341

What about AUCGGA ?
-0.605

What about UUGUAU ?
0.0117

What about ACGUGG ?
-0.532

What about CCAAAU ?
-0.277

What about GAGAAG ?
-0.283

What about CGGCAC ?
-0.036

What about AUGGAA ?
-0.588

What about UCGUAC ?
0.087

What about AUUCCC ?
-0.55

What about UGACUC ?
-0.0587

What about CGGUAU ?
-0.696

What about CCCAUU ?
-0.0438

What about CACAAA ?
-0.504

What about GCACUU ?
-0.492

What about GUAGCA ?
0.112

What about CGUUUA ?
-0.544

What about GCGACG ?
-0.315

What about CGAAUA ?
-0.507

What about GACAAC ?
-0.156

What about CGACGA ?
-0.45

What about UCGGUC ?
-0.238

What about GCAAGC ?
-0.589

What about ACCAUA ?
-0.294

What about AUAAAG ?
-0.485

What about UUGAAA ?
-0.168

What about CCAGUC ?
-0.422

What about GUUGAG ?
-0.16

What about CAUGGA ?
-0.378

What about GACAUA ?
-0.45

What about CCCUAG ?
-0.771

What about CUUAGC ?
-0.863

What about UCACGU ?
-0.191

What about AAGAAA ?
-0.319

What about GUUCUG ?
-0.079

What about GUAUGA ?
-0.487

What about GCUAUA ?
-0.262

What about CCGACA ?
-0.323

What about AAACAU ?
-0.286

What about AGAUGA ?
-0.545

What about AGGAUG ?
-0.151

What about CACGGA ?
-0.398

What about CAUGAC ?
-0.0513

What about AGAGGA ?
-0.441

What about CGCUAA ?
-0.647

What about CGGAUA ?
-0.243

What about CCUUAG ?
-0.183

What about CCCUGC ?
-0.0175

What about AUGCGA ?
-0.411

What about GCGUAU ?
-0.304

What about GAACGU ?
-0.419

What about UGAAGU ?
-0.24

What about CUGAAA ?
-0.638

What about CUCUUA ?
-0.241

What about AGGACA ?
-0.264

What about CGCCAC ?
-0.0985

What about UAUGAU ?
-0.525

What about GUAAGA ?
-0.617

What about CACGAA ?
-0.353

What about AAUGUG ?
0.000386

What about ACGGAU ?
-0.662

What about UCUGUA ?
-0.293

What about AAAAUC ?
0.0212

What about UGGUCG ?
-0.511

What about ACCUAA ?
-0.281

What about CUAAAA ?
-0.396

What about UAACGC ?
-0.0408

What about AGUGAC ?
-0.339

What about CCAGAA ?
-0.598

What about UAUGAC ?
-0.234

What about GUGGUG ?
-0.455
